The following compounds are listed with their measured GI50 values.
# Tested on: 786-0 renal
# assay_protocol: NCI tumour cell line growth inhibition, 48 h
readout_label: GI50

COc1ccc2nc3cc(Cl)ccc3c(NCCN)c2c1 : 1630 nM
CCC(=O)c1c(C(F)(F)F)n([O-])c2ccc(C)cc2[n+]1=O : 22000 nM
Fc1ccc(-c2nn3ncccc3c2-c2ccnc(Nc3ccc4c(c3)OCCO4)n2)cc1 : 2290 nM
C=C(C)C1CCC2(C(=O)O)CCC3(C)C(CCC4C5(C)CCC(OC(=O)NCc6ccccc6)C(C)(C)C5CCC43C)C12 (configuration not stated) : 3980 nM
Cn1c2ccccc2c2c3[nH]c(=O)[nH]c(=O)c3c3c4ccccc4n(C)c3c21 : 1880 nM
COc1cc2c(c(OC)c1OC)C(=O)[C@@H]1c3ccc([N+](=O)[O-])cc3C(=O)N(CCCBr)[C@H]21 : 12500 nM
C=C1CC[C@@H]2[C@](C)(COC(C)=O)[C@H](OC(C)=O)CC[C@@]2(C)[C@@H]1CC(Nc1ccc(S(=O)(=O)Nc2ncccn2)cc1)C1=CCOC1=O (some centres not stated) : 1770 nM

* * *

# Test system: M14 melanoma
# assay_protocol: NCI tumour cell line growth inhibition, 48 h
readout_label: TGI

Cc1nc(-c2ccccc2)c(-c2ccccc2)s1 : 41.1 µM
CC(C)N1CN(C(C(=O)N[C@@H]2C(=O)N3C2SC(C)(C)C3C(=O)O)c2ccccc2)CSC1=S (stereo partly drawn) : > 100 µM
Nc1nc(-c2cccc(Cl)c2)c(-c2ccc3ncccc3n2)s1 : > 25 µM
O=C1OC(c2ccco2)=N/C1=C\c1cccc([N+](=O)[O-])c1 : > 100 µM
COC(=O)C1=C(C(=O)OC)c2cc(OC)ccc2C(C(=S)N(C)C)S1 (stereo not drawn) : > 100 µM
COc1ncc(-c2ccc3ncnc(Nc4cccc(Cl)c4)c3c2)cc1NS(=O)(=O)CCN1CCOCC1 : > 100 µM
Cc1nc2ccccc2c(=O)n1-c1ccccc1F : > 100 µM
C=C(CC[C@@H](C)[C@H]1CC[C@@]2(C)C3=C(CC[C@]12C)[C@@]1(C)CC[C@H](O)[C@@H](C)C1CC3)C(C)C (stereo partly drawn) : 2.36 µM

* * *

# Test system: SF-295 CNS
# assay_protocol: NCI tumour cell line growth inhibition, 48 h
The following compounds are listed with their measured TGI values.
readout_label: TGI

OC/C=C(\I)CCCOCOCc1ccccc1 : > 100 µM
C=C1CCC23CC(CC[C@@H]2[C@@]12C[C@@H](c1ccoc1)OC2=O)OC3=O (stereo partly drawn) : > 100 µM
Cc1cc(=O)n2nc(CN3CCCCC3)sc2n1 : > 100 µM

* * *

# Tested on: RPMI-8226 leukemia
# assay_protocol: NCI tumour cell line growth inhibition, 48 h; in the data active = GI50 below about 0.43 µM; inactive = the rest
Possible outcomes: Yes for active, No for inactive

CCN(CC)CCCC(C)Nc1cnc(C(=O)Nc2cccc3ccc(OC)nc23)cn1 (centres undefined) : No
COc1ccccc1Cn1cc2c(c1-c1ccccc1)CCc1cnoc1-2 : No
CC1(C)N=C(N)N=C(N)N1c1ccc(OCc2ccc(S(=O)(=O)F)c(Cl)c2)c(Cl)c1 : No
Cc1ccc(NC(=O)NCCCOc2ccc(N3C(N)=NC(N)=NC3(C)C)cc2Cl)cc1S(=O)(=O)F : No
CCc1oc2ccccc2c1C(=O)c1cc(I)c(O)c(I)c1 : No
O=C1NN(C2=NNC3(C(=O)N2)c2ccccc2-c2ccccc23)C(c2ccccc2)=N/C1=C/c1ccc(O)cc1 : No
CCOC(=O)c1c(C)nc2c(c1N)/C(=C/c1ccc(OC)cc1)C(=O)N2Cc1ccc(F)cc1 : Yes
O=C(/C(=C/c1cccc([N+](=O)[O-])c1)c1ccccc1)c1ccccc1 : No
N#Cc1cccc(NC(=O)c2cc(-c3ccc(F)cc3F)ccc2O)c1 : No

* * *

# System: KM12 colon
# assay_protocol: NCI tumour cell line growth inhibition, 48 h
The following compounds are listed with their measured TGI values.
readout_label: TGI

C/C(=C1/CCC/C(=C(/C)c2ccccc2)C1=O)c1ccccc1 : > 100 µM
Cc1ccc(C)c(COCCOCn2ccc(N)nc2=O)c1 : > 100 µM
COC(=O)C(NC(=O)c1ccccc1)c1ccco1 (stereo not drawn) : > 100 µM

* * *

# System: UACC-257 melanoma
# assay_protocol: NCI tumour cell line growth inhibition, 48 h; in the data active = GI50 below about 0.43 µM; inactive = the rest
Possible outcomes: True for active, False for inactive

CCCCCN(CCCCC)CC(O)c1ccc(Cl)c2ccccc12 (stereo unspecified) : False
O=C(/C(=C/c1cccc([N+](=O)[O-])c1)c1ccccc1)c1ccccc1 : False
COc1cc2c(c(OC)c1OC)C(=O)[C@@H]1c3ccc([N+](=O)[O-])cc3C(=O)N(CCCBr)[C@H]21 : False
N.N.O=C([O-])P(=O)([O-])[O-].[Na+].[Pt+4] : False
O=S1(=O)N(CCNc2nccc(-c3c(-c4cccc(O)c4)nc4sccn34)n2)CCN1Cc1ccccc1 : False
COC(=O)c1c(C)[nH]c(/C=C2\N=C(c3ccc[nH]3)C=C2OC)c1C : True

* * *

# System: SK-MEL-28 melanoma
# assay_protocol: NCI tumour cell line growth inhibition, 48 h
The following molecules are listed with their measured TGI values.
readout_label: TGI (µM)

Fc1ccc(C2SCc3nc4ccccc4n32)cc1Cl (centres undefined) : 61.2
CC(=O)O.[Au].c1ccc([PH+](c2ccccc2)c2ccccc2)cc1 : 3.66
COc1cc2c3c(n(CCNCCCNCCn4c5c(c6cc(OC)c(OC)cc6c4=O)C(=O)c4ccccc4-5)c(=O)c2cc1OC)-c1ccccc1C3=O : 5.07
CC(C)=CC(=O)C[C@H]1C(=O)O[C@@H]2C[C@H]3C(C)=CC(=O)[C@@H](O)[C@]3(C)[C@H]3[C@@]4(O)OC[C@]32[C@@H]1[C@@H](C)[C@H]4O : 0.172

* * *

The following molecules are listed with their measured TGI values.
# System: NCI-H522 lung
# assay_protocol: NCI tumour cell line growth inhibition, 48 h
readout_label: TGI

O=C1NC2OCC(O)C(O)C2O1 (stereo not drawn) : > 100 µM
O=c1[nH]nc(Cc2ccccc2)[nH]1 : > 100 µM
CNC(=O)N1CN(c2ccccc2)C2(CCN(CCCC3(c4ccc(F)cc4)OCCO3)CC2)C1=O : > 100 µM

* * *

The following molecules are listed with their measured TGI values.
# Tested on: SF-539 CNS
# assay_protocol: NCI tumour cell line growth inhibition, 48 h
readout_label: TGI

CCN(CC)CC(=O)O[C@]1(CC)C(=O)OCc2c1cc1n(c2=O)Cc2cc3ccccc3nc2-1 : 0.17 µM
CCCS(=O)(=O)/C(=C(\c1ccc(Br)cc1)S(=O)(=O)CCC)c1ccc(Br)cc1 : > 10 µM
O=C1NC2OCC(O)C(O)C2O1 (stereo not drawn) : > 100 µM

* * *

# Tested on: COLO 205 colon
# assay_protocol: NCI tumour cell line growth inhibition, 48 h
readout_label: TGI (µM)

Cc1ccc2c3c(c(=O)[nH]c2c1)C1(C(C#N)=C(N)O3)c2cc(Br)ccc2-c2ccc(Br)cc21 : 3.82
COc1ccc(-c2nnc(COc3ccc(NC(=O)Nc4ccc(Cl)c(C(F)(F)F)c4)cc3F)o2)cc1 : 5.06

* * *

# System: NCI-H23 lung
# assay_protocol: NCI tumour cell line growth inhibition, 48 h
readout_label: TGI

CN(/N=C/c1ccc(OCc2cccc(COc3ccc(C=O)cc3)n2)cc1)c1cnn(-c2ccc(Cl)cc2Cl)c(=O)c1Cl : > 100 µM
CC1ON2CCCC2[C@H]1C(=O)N1C2CC3CCC2(CS1(=O)=O)C3(C)C (stereo not given in full) : > 100 µM
CCNc1cc2c(cc1O)CC[C@@H]1[C@@H]2CC[C@]2(C)[C@@H](O)CC[C@@H]12 : 28.7 µM
CC(C)c1ccc(C(c2ccc(OCC(=O)O)cc2)c2ccc(C(C)C)cc(=O)c2O)c(O)c(=O)c1 : 20.4 µM
N#CCc1ccc(C(C#N)/C(CCCC(=O)Nc2cccc([N+](=O)[O-])c2)=N/NC(N)=S)cc1 (stereo not given) : > 100 µM
c1cc[c]([Pb]([c]2ccccc2)[c]2ccccc2)cc1 : 15.8 µM
C/C=C(\C)CC/C=C/CO[Si](C)(C)C(C)(C)C : > 100 µM
O=C(O)[C@@H]1CCCCN1Cc1cc2cc3c(cc2c2cc(OCc4ccccc4)ccc12)OCO3 : 45.7 µM
O=c1oc2cc(O)ccc2c(O)c1C(c1ccccc1F)c1c(O)c2ccc(O)cc2oc1=O : > 100 µM
COC(=O)c1cc(C)c(C)c2c1NC(=O)CNC2=O : > 100 µM
CCc1c(C)c(C#N)c(=S)n(C2OC(COC(C)=O)C(OC(C)=O)C(OC(C)=O)C2OC(C)=O)c1C (stereo not given) : > 100 µM
CCCCCN(CCCCC)CC(O)c1ccc(Cl)c2ccccc12 (stereo not given) : 19.9 µM
CCn1c2ccccc2n2c(=O)c3c(c(C#N)c12)CCCC3 : > 100 µM
C=C[C@H]1C[C@@H]2C[C@@H]3[C@H]4C/C=C\C(=O)NCCCC5NC(=O)C(=C(O)/C=C/[C@@H]4CC(=O)[C@H]3[C@@H]2[C@H]1C)C5=O (stereo not given in full) : 1.47 µM
Cc1ccc2[nH]c(C(=O)NN3C(=O)C(C)SC34CCCC(C)C4)c(-c3ccccc3)c2c1 (stereo not given) : > 100 µM
O=C1OC(c2ccco2)=N/C1=C\c1cccc([N+](=O)[O-])c1 : > 100 µM
O=C(/C=C\n1cnc(-c2cc(C(F)(F)F)cc(C(F)(F)F)c2)n1)NNc1cnccn1 : 15.7 µM
CCOC(=O)CN=C1NNS(=O)(=O)c2ccccc21 : > 100 µM
Cc1ccc(NC(=O)NCCCOc2ccc(N3C(N)=NC(N)=NC3(C)C)cc2Cl)cc1S(=O)(=O)F : > 100 µM
c1cc2c(ncc3cscc32)s1 : > 100 µM
O=C(Nc1ccc(Cl)cc1Cl)C(=O)C(C(=O)c1ccncc1)C1OC(=O)c2ccccc21 (stereo not given) : > 100 µM
Cc1cc(=O)n2nc(CN3CCCCC3)sc2n1 : > 100 µM
O=C1N[C@@H](c2c[nH]c3cc(Br)ccc23)C(=O)N[C@H]1c1c[nH]c2cc(Br)ccc12 : > 100 µM
O=C1NC2OCC(O)C(O)C2O1 (stereo not given) : > 100 µM
c1ccc(CSP234N5CCN2CCN3CCN4CC5)c(CSP234N5CCN2CCN3CCN4CC5)c1 : > 100 µM
COc1ccc(C2C3=C(Nc4ncnn42)c2ccccc2OC3c2ccccc2)cc1 (stereo not given) : > 100 µM
Cc1ccc(-c2cc(=O)c3cc(C)c(C)c(C(=O)O)c3o2)cc1C : > 100 µM
CN1C2CCC1CC(CCNC(c1ccccc1)c1ccccc1)C2 (stereo not given) : > 100 µM
CC(C)=CC(=O)C[C@H]1C(=O)O[C@@H]2C[C@H]3C(C)=CC(=O)[C@@H](O)[C@]3(C)[C@H]3[C@@]4(O)OC[C@]32[C@@H]1[C@@H](C)[C@H]4O : 0.042 µM
COC(=O)C(=O)C(C(=O)C=C(C)C)C(=O)C(=O)Nc1ccc(C)cc1C (stereo not given) : > 100 µM

Sourced from PubChem BioAssay (NCI)
